Molecular target: C-terminal domain of TgCEN1 (C-TgCEN1, 95–169 aa) (Toxoplasma gondii, UniProt A0A125YHX7 95-169)
Experiment: ITC
value.kind: Kd (nM)
Value expressed in nM; do not type the unit.

Enquiry: # lookup: Kd of NWKLLAKGLLIRERLKR [P17-XPC peptide (17-residue peptide of the human xeroderma pigmentosum group C protein, N847-R863)]
Return: 50.1
